- Study target: MSI-1 RRM1 (Homo sapiens, UniProt O43347 1-103)
- Sequence (O43347 1-103): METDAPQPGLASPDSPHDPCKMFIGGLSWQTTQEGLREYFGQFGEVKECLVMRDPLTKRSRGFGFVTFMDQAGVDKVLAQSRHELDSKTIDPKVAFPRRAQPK
- Experiment: SPR; 1:1 model; NMR: 50 mM Tris-HCl, 140 mM NaCl, 1 mM EDTA, 1 mM protease inhibitors, pH 7.2 (RRM1: pH 7.5), 298 K; fluorescence quenching: 50 mM Tris pH 7.2, 140 mM NaCl, 1 mM EDTA; SPR: biotinylated RNA immobilised, buffer not in the material
- Condition label: protein: recombinant; label: biotin for SPR; unlabelled for NMR; hairpin

{"columns": ["Binder", "Kd (nM)"],
 "data": [
  ["AAGCGUUAGUUAUUUAGUCGCUU (structured_RNA) [oligo-HP4]", 21.9],
  ["CACUCUGUAGUAUGUAGGGUUUAUUU (structured_RNA) [oligo-HP5]", 32.8]
]}
